The measurements presented in this section are drawn from patent US20170015742A1.

Target: T1, Human VEGF-A 165 (human, UniProt P15692 207-395)
T1 construct: Recombinant human VEGF165; also called huVEGF-A165; hVEGF165
T1 sequence (P15692 other isoform, or with tags, fused parts or gaps): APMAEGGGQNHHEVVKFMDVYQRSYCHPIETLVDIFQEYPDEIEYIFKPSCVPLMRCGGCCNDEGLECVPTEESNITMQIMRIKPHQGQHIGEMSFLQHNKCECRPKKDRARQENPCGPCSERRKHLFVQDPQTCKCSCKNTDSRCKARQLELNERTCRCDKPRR
Assay: SPR (Biacore), antibody captured by anti-human Fc, hVEGF165 as analyte
Exercise: state measured Kd for each of the binders provided.
Lab book: enter the figure in nM, no units written.

According to the records, this binder chBEW-1E3 (antibody, human IgG1, kappa, L234A L235A, V domains shown, also called chBEW-1E3-D6) VH: QIQLVQSGPELKKPGESVKISCKASGYPFTNSGMYWVKQAPGQGLQYMGWINTEAGKPTYADDFKGRFVFFLETSASTAYLQINNLKNEDMATYFCARWGYISDNSYGWFDYWGQGTLVTVSS VL: DTVLTQSPALAVSPGERVSISCRASEGVYSYMHWYQQNPGQQPKLLIYKASNLASGVPARFSGSGSGTDFTLTIDPVEADDTATYFCHQNWNDPLTFGSGTKLEIKR displays Kd of 0.011

According to the records, this binder chBEW-10H2 (antibody, human IgG1, kappa, L234A L235A, V domains shown, also called chBEW-10H2-B9) VH: QIQLVQSGPELKKPGESVKISCKASGYSFTNFGLYWVKQAPGQGLQYMGWIDTETGKPTYADDFRGRFVFFLETSASTAYLQINNLKNEDMATYFCARVYGYPSWYFDFWGPGTMVTVSS VL: DIQMTQSPASLSTSLEEIVTITCQASQDIDNYLSWYQQKPGKSPQLLIHSATSLADGVPSRFSGSRSGTQFSLKIHRLQVEDTGIYYCLQHFFPPWTFGGGTKLELKR displays Kd of 0.013

According to the records, this binder chBEW-1B4 (antibody, human IgG1, kappa, L234A L235A, V domains shown, also called chBEW-1B4-C4) VH: QIQLVQSGPELKKPGESVKISCKASGYSFTNYGMYWVKQAPGQGLQYMGWIDTETGKPTYTDDFKGRFVFFLETSASTAYLQINNLKNEDMATYFCARWSGDTAGIRGPWFAYWGQGTLVTVSS VL: DIRMTQSPASLSASLGETVNIECLASEDIYSDLAWYQQKPGKSPQLLIYNANDLQKGVPSRFSGSGSGTQYSLKINSLQSEDVATYFCQQYNYYPGTFGAGTKLELKR displays Kd of 0.011

According to the records, this binder chBEW-3A1 (antibody, human IgG1, kappa, L234A L235A, V domains shown, also called chBEW-3A1-D10-G9) VH: QVQLEQSGAELVKPGTSVKLSCMASGYTSSSNHMNWMKQTTGQGLEWIGIINPGSGGTRYNVKFEGKATLTVDKSSSTAFMQLNSLTPEDSAVYYCARAGFPGPFSYYAMGAWGQGTSVTVSS VL: DIQMTQSPPVLSASVGDRVTLSCKASQNIHNNLDWYQQKHGEAPKLLIFYTNNLQTGIPSRFSGSGSGTDYTLTISSLQPEDVATYYCYQYNSGYTFGAGTKLELKR displays Kd of 0.023
